Assay: protein stability index of a GFP-peptide fusion (yeast GPS) (PSI 1-4); higher = more stable; sorted into four equal gates, so the index is relative within each strain
Conditions: ubr1∆
Mark 0.0 for protein stability index values under 3, and 1.0 for everything at or above.

Solved cases below.
sequence-content	label
SWVQPRIISGDQITKMK [RPN9]	1.0
NQILMSVNFFVSLLKKN [RPL1A]	0.0
LGKQSSSLLSRLISSKM [FAS2]	0.0
SEEIDSLNEDVEEIKLQ [SMC2]	1.0
HDSSNGLFQVLHNFESV [NUT1]	1.0

Inquiry: State whether the measured protein stability index reaches 3, counting equality as reaching it, for EIEPILMEIHNILKVDS [RGR1]
Reply text: 0.0

Inquiry: State whether the measured protein stability index reaches 3, counting equality as reaching it, for TTIFVKSTTPYVSALKR [POP7]
Reply text: 0.0

Inquiry: State whether the measured protein stability index reaches 3, counting equality as reaching it, for KDRFDIDEKSQFVETIV [RPN2]
Reply text: 0.0

Inquiry: State whether the measured protein stability index reaches 3, counting equality as reaching it, for EEIFFKSVRILKNKAEY [RPC40]
Reply text: 1.0

Inquiry: State whether the measured protein stability index reaches 3, counting equality as reaching it, for VSNRVAAPARAGAVAPE [RPP0]
Reply text: 0.0

Inquiry: State whether the measured protein stability index reaches 3, counting equality as reaching it, for KNPRVTKEYLVQNLRSW [CSN9]
Reply text: 1.0

Inquiry: State whether the measured protein stability index reaches 3, counting equality as reaching it, for LSESPVDFEKFETFLVD [SIN4]
Reply text: 0.0

###

The reader will find reported protein stability index values listed item by item below.
Assay: protein stability index of a GFP-peptide fusion (yeast GPS) (PSI 1-4); higher = more stable; sorted into four equal gates, so the index is relative within each strain
Details: doa10∆

Study these solved cases before continuing.
sequence-content	protein stability index
TTLHGPGFQLPNRITLT [SRB8]	2.9
ASGLLRAYLSHSNRCIV [CSN12]	1.85
TVTLNKNREVVQVSKAG [RRP45]	2.8
NDEPSHKKIKVAQPDSL [SIR2]	2.32
SIREDILECDLLICIGT [SIR2]	2.45
RCNDNLMRSCFYLMVSS [YJL039C/NUP192]	1.46

Inquiry: Tell me its protein stability index given QLIAKNVANVSGSTEKA [SIR3] as the entry.
Reply text: 3.03

###

Assay: protein stability index of a GFP-peptide fusion (yeast GPS) (PSI 1-4); higher = more stable; sorted into four equal gates, so the index is relative within each strain
Details: doa10∆
measured-attribute: protein stability index

Inquiry: Tell me its protein stability index given TRAAKIAPRPLDLLRPV [RPL13A] as the entry.
Reply text: 2.95

Inquiry: Tell me its protein stability index given KVGEDIAKATKEFKGIK [RPL12A] as the entry.
Reply text: 3.07

Inquiry: Tell me its protein stability index given RSVRIPWYNNPVSCIIQ [PRP8] as the entry.
Reply text: 2.33

###

Test: protein stability index of a GFP-peptide fusion (yeast GPS) (PSI 1-4); higher = more stable; sorted into four equal gates, so the index is relative within each strain
Settings: pdr5∆
Mark Not fulfilled for protein stability index values under 3, and Fulfilled for everything at or above.

sequence-content	label
GSENKRGSLDSEHVFDY [NUT1]	Fulfilled
QENGTIFRGSLIGCIPY [YDL088C/ASM4]	Not fulfilled
FGNKPAGSTGFSFGQNN [YGR119C/NUP57]	Not fulfilled

Inquiry: State whether the measured protein stability index reaches 3, counting equality as reaching it, for ECLPAEGHDWKAPTKLD [DIS3]
Reply text: Fulfilled

Inquiry: State whether the measured protein stability index reaches 3, counting equality as reaching it, for KNNILGSNVLKSGKTIV [RRP43]
Reply text: Fulfilled

Inquiry: State whether the measured protein stability index reaches 3, counting equality as reaching it, for MGKGTPSFGKRHNKSHT [RPL37A]
Reply text: Fulfilled
